target_system: RUNX1 (UniProt Q01196)
Sequence (Q01196 whole entry): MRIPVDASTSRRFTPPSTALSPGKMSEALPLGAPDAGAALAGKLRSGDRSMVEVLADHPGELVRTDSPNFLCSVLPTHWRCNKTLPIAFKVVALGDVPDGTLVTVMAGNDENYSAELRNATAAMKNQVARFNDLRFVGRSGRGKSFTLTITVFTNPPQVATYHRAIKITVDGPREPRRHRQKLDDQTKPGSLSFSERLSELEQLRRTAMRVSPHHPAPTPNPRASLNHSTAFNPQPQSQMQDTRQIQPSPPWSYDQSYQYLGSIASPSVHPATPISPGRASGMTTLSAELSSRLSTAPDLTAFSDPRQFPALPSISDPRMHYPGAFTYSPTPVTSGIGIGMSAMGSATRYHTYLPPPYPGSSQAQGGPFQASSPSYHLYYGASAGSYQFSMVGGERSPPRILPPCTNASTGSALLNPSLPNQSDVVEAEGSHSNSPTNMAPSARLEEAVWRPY
assay_comment: RUNX1 binding intensity (PBM fluorescence) in presence of ETS1, normalised to RUNX1-only experiment (arbitrary fluorescence units); higher = stronger binding
run_parameters: RUNX1 concentration 2 nM; ETS1 concentration 25 nM
measured_quantity: RUNX1 binding intensity
Keep it simple and answer with nothing but the number.

Solved cases (3 shown):
| sequence_chain | RUNX1 binding intensity |
| --- | --- |
| TCCTCCGTTTCCGTAGTTCCGAGTTGCGGTTTCTCC | 15200 |
| GCCACACTGGCGGAAATGGTGGTTACTGTTCGAGCC | 1560 |
| CAGACAGGAGGCGGATGTGGGTGGCGCAGAATGAGC | 1920 |

RUNX1 binding intensity reading for GCCATTAAAGCAGCTTCCTGTGGGCGCGGCGCAGGA : 1010

###

target_system: RUNX1 (UniProt Q01196)
assay_comment: RUNX1 binding intensity (PBM fluorescence) in presence of ETS1, normalised to RUNX1-only experiment (arbitrary fluorescence units); higher = stronger binding
run_parameters: RUNX1 concentration 2 nM; ETS1 concentration 25 nM
measured_quantity: RUNX1 binding intensity
Keep it simple and answer with nothing but the number.

Solved cases (3 shown):
| sequence_chain | target_system | RUNX1 binding intensity |
| --- | --- | --- |
| ACCGCCGGAAGTTTCTGCCGCGGCTTTGCGGGGACG | RUNX1 (UniProt Q01196) | 1760 |
| GGGCCCACATCCGGCGCGCGCAACCGCAGCCTACTG | RUNX1 (UniProt Q01196) | 13100 |
| GCAGTCAGAAGGTGCGGATGCGGTAAGGTATGCGCT | RUNX1 (UniProt Q01196) | 1270 |

Now for the sequence whose RUNX1 binding intensity we want.
RUNX1 binding intensity reading for TCCCCCACTTCCTGGCAGCAGCAGTGTGGTGAGGAG : 2160

###

target_system: ETS1 (UniProt P14921)
Sequence: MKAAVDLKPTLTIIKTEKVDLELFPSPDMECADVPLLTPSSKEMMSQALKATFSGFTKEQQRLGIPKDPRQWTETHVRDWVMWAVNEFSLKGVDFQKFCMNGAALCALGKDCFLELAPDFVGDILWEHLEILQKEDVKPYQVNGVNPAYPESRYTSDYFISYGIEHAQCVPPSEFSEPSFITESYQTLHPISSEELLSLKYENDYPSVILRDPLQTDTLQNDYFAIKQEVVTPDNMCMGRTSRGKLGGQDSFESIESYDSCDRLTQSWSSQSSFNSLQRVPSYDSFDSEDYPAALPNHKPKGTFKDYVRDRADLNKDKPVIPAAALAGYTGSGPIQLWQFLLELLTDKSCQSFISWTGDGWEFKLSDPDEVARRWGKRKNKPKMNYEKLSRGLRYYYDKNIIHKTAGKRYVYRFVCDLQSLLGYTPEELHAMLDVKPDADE
assay_comment: ETS1 binding intensity (PBM fluorescence) in presence of RUNX1, normalised to ETS1-only experiment (arbitrary fluorescence units); higher = stronger binding
run_parameters: ETS1 concentration 1 nM; RUNX1 concentration 25 nM
Quick rule: ETS1 binding intensity of at least 1000 means criterion met, below that means criterion not met.

| sequence_chain | class_label |
| --- | --- |
| CTTTGTTGAAAAGGATGTGGTCATCTGATCTTGCTG | criterion met |
| TTTGATTTCCTGTCTCCATGTTGTGGTCAAGATTGC | criterion met |
| TTCAAAGGAGTCCAAGGAAGTGGTTTAACAGCGATG | criterion met |
| ATCTTACCCCGGAAATGACAACAGTGCCGCAAACTG | criterion met |
| TGAGTCACAGAGACAGGATGTGGTGCAGGGGGTATT | criterion met |
| TTGGTCAGGATGTGGCTGAAGAAGCCACAAGAAAAA | criterion not met |
| GGAGCGCGCCGGAAACGCGCGGCTGCGGCCCGGGAG | criterion met |
| CTGCGTTTCCTCTGAGTTTTGCATGTTGAGGTTGGA | criterion not met |
| AACAGATCCTTCCTGGCCCCCACTAGCCACAGGTTT | criterion not met |
| TTAACCAGACATTTCCTGTGGTCTAAGGTGACCCCA | criterion met |

Q: Kindly determine if ETS1 binding intensity recorded for GACAGCAACTCCACTTCCTGTGGGCGAGGGCCCTGT is above or exactly 1000.
Result: criterion met

Q: Kindly determine if ETS1 binding intensity recorded for CTACGACTTCCGTGATGCCTTGCGGTTGCTGTAGCC is above or exactly 1000.
Result: criterion met

###

Entries and their TF binding intensity
target_system: RUNX1 (UniProt Q01196)
assay_comment: TF binding intensity (PBM fluorescence), negative control probe (arbitrary fluorescence units); higher = stronger binding
Keep it simple and answer with nothing but the number.

| sequence_chain | TF binding intensity |
| --- | --- |
| GCAGTCAGCCCTTCCCTTCCTGTCCGTCAACTCCGG (protein concentration 2 nM) | 875 |
| TCGGCGGCGGAGCACCGGAAGTTCTGCAGCACTGGC (protein concentration 2 nM) | 880 |
| ACAGTTGCTCCGTCTCTTCCTGTGTCTGGCTTTATT (protein concentration 2 nM) | 876 |
| GGGTGCAGAAGCCAGCGGAAGCGGAGCGCTACAAGC (protein concentration 2 nM) | 784 |
| CAACGTTCTTCTGTTCTTCCGTCTGTCGACCGAACT (protein concentration 2 nM) | 945 |
| CTTCTGTCTCCAAAACGGAAATAATAACTTGAGATT (protein concentration 2 nM) | 989 |
| GCACACAAGGCAGTGTTTCCGGGACAGAGGGTGGGC (protein concentration 2 nM) | 937 |
| GAAGGGGTTTCAGGACGGAAGCAAACACATATTCAA (protein concentration 2 nM) | 912 |

Known value: RUNX1 (UniProt Q01196) TF binding intensity of the sequence TCTCCGCGCATTTTATTTCCGGTTCTGAGGACGCCG (protein concentration 2 nM) equals 1040

Known value: RUNX1 (UniProt Q01196) TF binding intensity of the sequence CTCACCAGTCACCCCAGGAAACTCTGCCCCTTTACA (protein concentration 2 nM) equals 950

###

target_system: ETS1 (UniProt P14921)
Sequence: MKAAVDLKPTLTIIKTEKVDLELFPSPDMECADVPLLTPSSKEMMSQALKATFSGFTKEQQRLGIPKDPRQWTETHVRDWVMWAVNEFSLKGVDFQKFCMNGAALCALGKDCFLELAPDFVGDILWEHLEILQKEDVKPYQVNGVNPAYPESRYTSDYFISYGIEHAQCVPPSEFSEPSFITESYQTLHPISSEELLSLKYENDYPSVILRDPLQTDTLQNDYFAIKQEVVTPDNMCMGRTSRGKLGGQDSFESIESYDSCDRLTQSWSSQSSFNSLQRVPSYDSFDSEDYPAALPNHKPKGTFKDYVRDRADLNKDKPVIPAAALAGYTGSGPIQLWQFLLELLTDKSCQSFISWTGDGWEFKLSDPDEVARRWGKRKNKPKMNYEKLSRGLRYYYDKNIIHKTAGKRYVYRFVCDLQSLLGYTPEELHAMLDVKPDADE
assay_comment: ETS1 binding intensity (PBM fluorescence), ETS1 alone (arbitrary fluorescence units); higher = stronger binding
run_parameters: ETS1 concentration 1 nM; RUNX1 concentration 0 nM
Quick rule: ETS1 binding intensity of at least 600 means Met, below that means Not met.

Q: Kindly determine if ETS1 binding intensity recorded for CATTTCAGTCCAGGATGTGGGTGCACACACCGCTTC is above or exactly 600.
Result: Met

Q: Kindly determine if ETS1 binding intensity recorded for CCGCGCACCCGGAACTACCTCCCGACCCGCATCCCC is above or exactly 600.
Result: Not met

Q: Kindly determine if ETS1 binding intensity recorded for TCTGAGAATGCAGGATATGTGTGTGGTCTCTAGTCA is above or exactly 600.
Result: Met

Q: Kindly determine if ETS1 binding intensity recorded for GGGTCGCGGCCTTCCGGCGAACGCGGTTACCGTGGA is above or exactly 600.
Result: Not met

Q: Kindly determine if ETS1 binding intensity recorded for CGTCACTTCCCACGCGACTGCCTGCGGGAAACATGG is above or exactly 600.
Result: Not met

Q: Kindly determine if ETS1 binding intensity recorded for TCCTCCCACGGGAAGTGCCGTAGGACCGCAGCCCGA is above or exactly 600.
Result: Met

Q: Kindly determine if ETS1 binding intensity recorded for GACCTGGGTTTCCTGTCTGTACATCGCGGTTCCTAC is above or exactly 600.
Result: Met

Q: Kindly determine if ETS1 binding intensity recorded for CTCTTCTCAGGAAGGGGCTGTGGGATGTAGGATTCC is above or exactly 600.
Result: Met

Q: Kindly determine if ETS1 binding intensity recorded for CCCTCCTCTTTCGTTTCCTAACCGCAAATTCCATCA is above or exactly 600.
Result: Not met

Q: Kindly determine if ETS1 binding intensity recorded for GAGCAGCGGGAGGAAGCTGCGGCGCGCAGAGCAGAG is above or exactly 600.
Result: Not met
